Measured minimum inhibitory concentration (MIC), listed per entry.
- Tested on: STAPHYLOCOCCUS AUREUS A-5278
- assay info: In vitro antibacterial activity (agar dilution MIC)
- Assay type: cell-based
- assay context: BHI agar, 35-37° C., 20 to 24 hours

compound	minimum inhibitory concentration (MIC)
CC[C@H]1OC(=O)[C@H](C)C(=O)[C@H](C)[C@@H](O[C@@H]2O[C@H](C)C[C@H](N(C)C)[C@H]2O)[C@](C)(OC)C[C@@H](C)C2=Nc3cccnc3N3C(=O)O[C@@]1(C)[C@H]3[C@H]2C [Ex 7]	> 100
CC[C@H]1OC(=O)[C@H](C)C(=O)[C@H](C)[C@@H](O[C@@H]2O[C@H](C)C[C@H](N(C)C)[C@H]2O)[C@](C)(OC)C[C@@H](C)C2=Nc3ccccc3N3C(=O)O[C@@]1(C)[C@H]3[C@H]2C [Ex 2]	> 100

* * *

Property: minimum inhibitory concentration (MIC); scope: individual molecules
- Tested on: ESCHERICHIA COLI DC-2
- assay info: In vitro antibacterial activity (agar dilution MIC)
- Format: cell-based
- assay context: BHI agar, 35-37° C., 20 to 24 hours

molecule	minimum inhibitory concentration (MIC)
CC[C@H]1OC(=O)[C@H](C)C(=O)[C@H](C)[C@@H](O[C@@H]2O[C@H](C)C[C@H](N(C)C)[C@H]2O)[C@](C)(OC)C[C@@H](C)C2=Nc3cc(OC)ccc3N3C(=O)O[C@@]1(C)[C@H]3[C@H]2C [Ex 5]	> 100
CC[C@H]1OC(=O)[C@H](C)C(=O)[C@H](C)[C@@H](O[C@@H]2O[C@H](C)C[C@H](N(C)C)[C@H]2O)[C@](C)(OC)C[C@@H](C)C2Nc3ccccc3N3C(=O)O[C@@]1(C)[C@H]3[C@H]2C (single isomer, unassigned) [Ex 3]	> 100
CC[C@H]1OC(=O)[C@H](C)C(=O)[C@H](C)[C@@H](O[C@@H]2O[C@H](C)C[C@H](N(C)C)[C@H]2O)[C@](C)(OC)C[C@@H](C)C2=Nc3cccnc3N3C(=O)O[C@@]1(C)[C@H]3[C@H]2C [Ex 7]	> 100
CC[C@H]1OC(=O)[C@H](C)C(=O)[C@H](C)[C@@H](O[C@@H]2O[C@H](C)C[C@H](N(C)C)[C@H]2O)[C@](C)(OC)C[C@@H](C)C2=Nc3cc(C)ccc3N3C(=O)O[C@@]1(C)[C@H]3[C@H]2C [Ex 4]	> 100
CC[C@H]1OC(=O)[C@H](C)C(=O)[C@H](C)[C@@H](O[C@@H]2O[C@H](C)C[C@H](N(C)C)[C@H]2O)[C@](C)(OC)C[C@@H](C)C2=Nc3ccccc3N3C(=O)O[C@@]1(C)[C@H]3[C@H]2C [Ex 2]	> 100
CC[C@H]1OC(=O)[C@H](C)C(=O)[C@H](C)[C@@H](O[C@@H]2O[C@H](C)C[C@H](N(C)C)[C@H]2O)[C@](C)(OC)C[C@@H](C)C2=Nc3cc(C#N)ccc3N3C(=O)O[C@@]1(C)[C@H]3[C@H]2C [Ex 6]	> 100
C=CCO[C@]1(C)C[C@@H](C)C2=Nc3ccccc3N3C(=O)O[C@](C)([C@@H](CC)OC(=O)[C@H](C)C(=O)[C@H](C)[C@H]1O[C@@H]1O[C@H](C)C[C@H](N(C)C)[C@H]1O)[C@H]3[C@H]2C [Ex 8]	> 100
